B1: TOR1AIP2 (parent)
chain: AGQEGEDTLRRRLLAPEAGSHPQQ

variants of: B1; experiment: protein stability index of a GFP-peptide fusion (GPS, HEK-293T) (PSI 1-6); higher = more stable; settings: c terminus: a fixed tail appended;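 note: lentivirally expressed fusions sorted by FACS into six bins by GFP to DsRed ratio, PSI derived from sequencing read proportions per bin multiplied by bin number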
Below: a set of entries, each annotated with reported protein stability index.

| Mutation notation | protein stability index |
| --- | --- |
| Q3F | 2.05 |
| Q23H | 2.01 |
| R12L | 2.56 |
| G19E | 2.15 |
| Q3W | 2.14 |
| L14T | 5.58 |
| P22G | 2.44 |
| L13C | 3.48 |
| A1K | 2.54 |
